- system: human neurotrypsin (Homo sapiens)
- Sequence (P56730 21-875): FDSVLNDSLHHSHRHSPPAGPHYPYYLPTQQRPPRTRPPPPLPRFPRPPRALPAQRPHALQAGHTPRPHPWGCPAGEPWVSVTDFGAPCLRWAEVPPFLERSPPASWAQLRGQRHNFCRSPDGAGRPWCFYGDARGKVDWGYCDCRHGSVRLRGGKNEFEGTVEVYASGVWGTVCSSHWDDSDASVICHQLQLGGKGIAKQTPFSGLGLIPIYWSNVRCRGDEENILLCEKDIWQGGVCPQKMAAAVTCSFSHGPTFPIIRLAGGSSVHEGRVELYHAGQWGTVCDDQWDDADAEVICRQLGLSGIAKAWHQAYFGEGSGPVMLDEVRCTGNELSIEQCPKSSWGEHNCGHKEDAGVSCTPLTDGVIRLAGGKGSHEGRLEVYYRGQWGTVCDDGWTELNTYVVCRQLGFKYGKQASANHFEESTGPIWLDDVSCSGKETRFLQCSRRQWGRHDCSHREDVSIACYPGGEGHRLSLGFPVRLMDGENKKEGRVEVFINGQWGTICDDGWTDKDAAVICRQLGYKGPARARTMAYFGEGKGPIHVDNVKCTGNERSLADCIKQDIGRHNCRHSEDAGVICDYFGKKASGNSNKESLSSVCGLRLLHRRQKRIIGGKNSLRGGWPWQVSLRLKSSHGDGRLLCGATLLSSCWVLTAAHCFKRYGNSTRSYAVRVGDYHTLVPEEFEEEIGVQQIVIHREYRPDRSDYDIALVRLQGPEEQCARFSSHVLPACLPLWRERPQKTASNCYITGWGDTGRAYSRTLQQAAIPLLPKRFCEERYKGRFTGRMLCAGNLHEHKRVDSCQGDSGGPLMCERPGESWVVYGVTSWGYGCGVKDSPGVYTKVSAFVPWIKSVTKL
- test description: Determination of IC50 for human neurotrypsin
- Assay type: biochemical
- test settings: Mean ± SD; read-out: IC50 Neurotrypsin
recorded endpoint: IC50 (nM)

molecule: O=C(Nc1ccc(Cl)cc1)c1ccc(NC(=O)c2ccc(-c3nc4cc(Cl)c(Cl)cc4[nH]3)cc2)c(C(=O)O)c1 [Example 119]
recorded endpoint: IC50
readout number: 510

###

- system: Thrombin (Homo sapiens, UniProt P00734)

smiles structure: O=C(Nc1ccc(Cl)cc1)c1ccc(NC(=O)c2ccc(-c3nc4cc(Cl)c(Cl)cc4[nH]3)cc2)c(C(=O)O)c1
IC50: 37.7 µM

###

- system: uPA (Homo sapiens, UniProt P00749)

compound: O=C(Nc1ccc(Cl)cc1)c1ccc(NC(=O)c2ccc(-c3nc4cc(Cl)c(Cl)cc4[nH]3)cc2)c(C(=O)O)c1 [Example 119]
system: uPA (Homo sapiens, UniProt P00749)
IC50: > 40 µM

###

- system: human neurotrypsin (Homo sapiens)
- test description: Determination of IC50 for human neurotrypsin
- Type: biochemical
- test settings: human neurotrypsin; method of WO 2006/1103261; read-out: Neurotrypsin IC50
pIC50: −log10 of the molar value.
recorded endpoint: pIC50

smiles structure: O=C(NCc1ccc(Cl)cc1)c1ccc(C(=O)O)c(NC(=O)c2sc3ccccc3c2Cl)c1
recorded endpoint: pIC50
readout number: 5.37
//
smiles structure: O=C(Nc1ccc(Oc2cccnc2)c(Cl)c1)c1ccc(C(=O)O)c(NC(=O)c2sc3ccccc3c2Cl)c1
recorded endpoint: pIC50
readout number: 5.64
//
smiles structure: O=C(Nc1ccc(C(=O)N2CCC(Cc3ccccc3)CC2)cc1C(=O)O)c1ccc(-c2ccc(Cl)cc2)s1
recorded endpoint: pIC50
readout number: 5.52
//
smiles structure: O=C(Nc1ccc(Cl)cn1)c1ccc(C(=O)O)c(NC(=O)c2sc3ccccc3c2Cl)c1
recorded endpoint: pIC50
readout number: 5.10
//
smiles structure: O=C(Nc1ccc(Cl)cc1)c1ccc(NC(=O)c2ccc(-c3nc4cc(Cl)c(Cl)cc4[nH]3)cc2)c(C(=O)O)c1
recorded endpoint: pIC50
readout number: 6.40
//
smiles structure: O=C(Nc1ccccc1F)c1ccc(NC(=O)c2[nH]c3ccc(Cl)cc3c2-c2ccccc2)c(C(=O)O)c1
recorded endpoint: pIC50
readout number: 5.12
//
smiles structure: O=C(Nc1ccc(C(=O)O)c(NC(=O)c2ccc(-c3ccccc3)s2)c1)c1ccc(Cl)s1
recorded endpoint: pIC50
readout number: 5.52
//
smiles structure: O=C(NCCc1ccccc1)c1ccc(NC(=O)c2ccc(-c3nc4cc(Cl)c(Cl)cc4[nH]3)cc2)c(C(=O)O)c1
recorded endpoint: pIC50
readout number: 5.46
//
smiles structure: CC(C)(C)c1cccc(NC(=O)c2ccc(C(=O)O)c(NC(=O)c3sc4ccccc4c3Cl)c2)c1
recorded endpoint: pIC50
readout number: 5.25
//
smiles structure: O=C(O)c1cc(-c2cn(-c3ccc(Cl)cc3)nn2)ccc1NC(=O)c1sc2ccccc2c1Cl
recorded endpoint: pIC50
readout number: 5.40
//
smiles structure: CC(C)CN(C(=O)c1ccc(NC(=O)c2ccc(-c3nc4cc(Cl)c(Cl)cc4[nH]3)cc2)c(C(=O)O)c1)c1ccc(Cl)cc1
recorded endpoint: pIC50
readout number: 5.82
//
smiles structure: O=C(Nc1ccc(Cl)cc1)c1ccc(C(=O)O)c(NC(=O)c2ccc(-c3ccccc3)s2)c1
recorded endpoint: pIC50
readout number: 4.59
//
smiles structure: Cn1c(-c2ccc(C(=O)Nc3cc(C(=O)Nc4ccc(Cl)cc4)c(OCC(=O)O)cc3C(=O)O)cc2)nc2cc(Cl)c(Cl)cc21
recorded endpoint: pIC50
readout number: 6.30
//
smiles structure: O=C(Nc1ccc(Cl)cc1)c1ccc(NC(=O)c2ccc(-c3nc4cc(Cl)ccc4[nH]3)cc2)c(C(=O)O)c1
recorded endpoint: pIC50
readout number: 5.80
//
smiles structure: O=C(Nc1ccc(Cl)cc1)c1ccc(C(=O)O)c(NC(=O)c2ccc(-c3ccccn3)s2)c1
recorded endpoint: pIC50
readout number: 4.66
